Target or system DGKα (Homo sapiens, UniProt P23743); metric pIC50; compiled from varied reports.
pIC50: −log10 of the molar value.
measureName: pIC50

Examples from the recorded data:
In [3]: df
Out[3]:
                                   molecule  recordednumber
0  CC[C@H]1CN(C(C)c2ccc3nccnc3c2)[C@H](CC)CN1c1cc(=O)n(C)n2cc(COC)nc12 (single isomer, unassigned)            5.29
1  COc1cc(F)c(C(C)N2C[C@H](C)N(c3cc(=O)n(C)c4cn(CC#N)nc34)C[C@H]2C)c(F)c1 (stereo partly drawn)            5.92
2  COC[C@@H]1CN(c2cc(=O)n(C)c3cn(CC#N)nc23)[C@@H](C)CN1C(C)c1ccc2nccnc2c1 (stereo partly drawn)            5.42
3  N[C@H]1CS(=O)(=O)c2ccc(-c3nnc(C4(N)CCCCC4)o3)cc2N(Cc2ccc(-c3ccc(C(F)(F)F)cn3)cc2)C1=O            4.51
4  CC(c1ccc2ccc(C#N)cc2c1)N1C[C@H](C)N(c2cc(=O)n(C)c3cn(CC#N)nc23)C[C@H]1C (stereo partly drawn)            5.61
5  CC(c1ccc2nc(O)cnc2c1)N1C[C@H](C)N(c2cc(=O)n(C)c3cn(CC#N)nc23)C[C@H]1C (stereo partly drawn)            5.19

A: CC[C@@H]1CN(c2cc(=O)n(C)n3cc(C=NOC)nc23)[C@@H](C)CN1C(C)c1ccc2nccnc2c1 (single isomer, unassigned)
B: CC[C@H]1CN(C(C)c2c(OC)cc(F)cc2OC)[C@H](CC)CN1c1cc(=O)n(C)c2cn(CC#N)nc12 (stereo partly drawn)
C: CC[C@@H]1CN(c2cc(=O)n(C)c3cn(CC#N)nc23)[C@@H](CC)CN1Cc1ccc(F)cc1
D: CC(c1ccc2nccnc2c1)N1C[C@H](C)N(c2cc(=O)n(C)c3cn(CCO)nc23)C[C@H]1C (stereo partly drawn)
E: CC[C@H]1CN(C(C)c2cnc3ccccc3n2)[C@H](CC)CN1c1cc(=O)n(C)c2cn(CC#N)nc12 (stereo partly drawn)
Sort these molecules on pIC50 so the largest reading comes first. Give your ranking as a list of the labels in the requested order. E, C, A, B, D

I: CC[C@H]1CN(C(C)c2ccc(C(F)F)cc2)[C@H](CC)CN1c1cc(=O)n(C)c2cn(CC#N)nc12 (stereo partly drawn)
II: Cc1cnc2ccc(C(C)N3C[C@H](C)N(c4c(F)c(=O)n(C)n5cc(CC#N)nc45)C[C@H]3C)cc2n1 (stereo partly drawn)
// pick larger pIC50 from pair: I vs II Mark your answer with the label of the selected entry. I

a: CC(c1cc2ccccc2cn1)N1C[C@H](C)N(c2nc(=O)n(C)c3c2nc(CC#N)n3C)C[C@H]1C (stereo partly drawn)
b: CC[C@H]1CN(C(C)c2ccc(OC(C)C)cc2)[C@H](CC)CN1c1cc(=O)n(C)c2cn(CC#N)nc12 (stereo partly drawn)
Could you check which of a and b has a smaller value for pIC50? Mark your answer with the label of the selected entry. a
(a: 5.61, b: 7.28)

---

Target or system DGKα (Homo sapiens, UniProt P23743); metric pIC50; compiled from varied reports.
pIC50: −log10 of the molar value.
measureName: pIC50

In [3]: df
Out[3]:
                                   compound                         systemtested  recordednumber
0  CC(c1ccc2c(c1)OC(C)(C)CO2)N1C[C@H](C)N(c2c(C#N)c(=O)n(C)n3cc(CC#N)nc23)C[C@H]1C (mixture of isomers)  DGKα (Homo sapiens, UniProt P23743)            6.07
1  CC(C)(C#N)c1nnc(-c2cc3c(cc2F)S(=O)(=O)C[C@H](N)C(=O)N3Cc2ccc(-c3ccc(C(F)(F)F)cn3)cc2)o1  DGKα (Homo sapiens, UniProt P23743)            6.12
2  Cc1noc(-c2ccc(CN3C(=O)[C@@H](N)CS(=O)(=O)c4ccc(-c5nnc(C(C)(C)C)o5)cc43)cc2)n1  DGKα (Homo sapiens, UniProt P23743)            5.30
3  CC(c1cccnc1C(F)(F)F)N1C[C@H](C)N(c2cc(=O)n(C)c3c2nc(CC#N)n3C)C[C@H]1C (single isomer, unassigned)  DGKα (Homo sapiens, UniProt P23743)            4.01
4  CC[C@@H]1CN(c2c(C#N)c(=O)n(C)c3cn(CC#N)nc23)[C@@H](C)CN1C(C)c1ccc2nccnc2c1 (some centres unmarked)  DGKα (Homo sapiens, UniProt P23743)            5.76

P: CC[C@H]1CN(C(C)c2ccc(CN3C[C@@H](C)O[C@@H](C)C3)cc2)[C@H](CC)CN1c1cc(=O)n(C)c2cn(CC#N)nc12 (some centres unmarked)
Q: CC(C)(C#N)c1nnc(-c2ccc3c(c2)N(Cc2ccc(-c4ccc(OC(F)F)cn4)cc2)C(=O)[C@@H](N)CS3(=O)=O)o1
Could you check which of P and Q has a smaller value for pIC50? Mark your answer with the label of the selected entry. Q
